Hello, the source for this data is PubChem BioAssay AID624167, in case you need it.

Molecular target: PEG-3 (UniProt Q6IN02)
Sequence (Q6IN02 whole entry, looked up): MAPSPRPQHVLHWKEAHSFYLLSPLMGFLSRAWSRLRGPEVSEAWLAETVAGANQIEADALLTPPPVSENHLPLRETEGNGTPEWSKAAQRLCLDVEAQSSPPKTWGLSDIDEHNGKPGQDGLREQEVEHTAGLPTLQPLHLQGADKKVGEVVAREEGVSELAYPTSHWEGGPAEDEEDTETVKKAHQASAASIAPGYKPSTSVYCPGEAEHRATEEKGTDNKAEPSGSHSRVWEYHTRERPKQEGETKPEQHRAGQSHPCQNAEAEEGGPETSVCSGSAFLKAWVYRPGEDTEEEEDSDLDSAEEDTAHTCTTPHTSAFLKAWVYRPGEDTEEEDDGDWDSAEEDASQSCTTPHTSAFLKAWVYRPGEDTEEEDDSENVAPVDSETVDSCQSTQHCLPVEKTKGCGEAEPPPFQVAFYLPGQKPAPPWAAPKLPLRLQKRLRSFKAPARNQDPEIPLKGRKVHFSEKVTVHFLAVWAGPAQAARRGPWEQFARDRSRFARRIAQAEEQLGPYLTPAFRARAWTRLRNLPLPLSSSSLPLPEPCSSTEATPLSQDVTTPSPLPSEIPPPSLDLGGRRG
Assay: Peg3 promoter luciferase inhibitors, potency, dose response, cell-based, HeLa, CREF/GAPDH counter-screen panel (AID 624167)
Conditions: HeLa PEG-Prom luciferase reporter, overnight, CREF/GAPDH counter-screens, mean of runs
The source made the active and inactive calls.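 Rule for the calls: active = mean IC50 for reducing PEG3 promoter reporter signal at or below a set limit, with IC50 above the limit in both counter screens; inactive = the rest, including counter screen hits.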
Classes used: active, inactive

{"columns": ["Compound", "Tested system", "Classification"],
 "data": [
  ["Cc1cc(/C=N/Nc2ncnc(N)c2[N+](=O)[O-])c(C)n1-c1ccccc1", "PEG-3 (UniProt Q6IN02)", "active"],
  ["O=C(/C=C/c1ccc(Cl)c([N+](=O)[O-])c1)c1ccc(O)cc1", "PEG-3 (UniProt Q6IN02)", "active"],
  ["O=C(NC(=O)c1ccccc1)Nc1ccccn1", "PEG-3 (UniProt Q6IN02)", "active"],
  ["CN(C)c1ccc(/C=C2\\SC(=O)N(CCc3nnc(N)s3)C2=O)cc1", "PEG-3 (UniProt Q6IN02)", "active"],
  ["CC(=O)n1cc(N(C(=O)CCl)c2ccc(C)cc2)c2ccccc21", "PEG-3 (UniProt Q6IN02)", "active"],
  ["CN1CCC(N(C)C(=O)/C=C/c2cn(-c3ccccc3)nc2-c2cccs2)CC1", "PEG-3 (UniProt Q6IN02)", "active"],
  ["CC(=O)NC(c1ccc(N(C)C)cc1)c1cc(Cl)c2cccnc2c1O (configuration not stated)", "PEG-3 (UniProt Q6IN02)", "active"],
  ["O=C(Nc1ccccc1)c1nc[nH]c1C(=O)NCCCCNC(=O)c1[nH]cnc1C(=O)Nc1ccccc1", "PEG-3 (UniProt Q6IN02)", "active"],
  ["Cc1nc(-c2ccc(NC(=O)c3ccco3)cc2)cs1", "PEG-3 (UniProt Q6IN02)", "active"],
  ["COc1ccc(-n2cc(-c3ccccc3)c3c(N4CCOCC4)ncnc32)cc1", "PEG-3 (UniProt Q6IN02)", "active"],
  ["COc1cccc(NC(=O)c2nc(S(C)(=O)=O)ncc2Cl)c1", "PEG-3 (UniProt Q6IN02)", "active"],
  ["COc1cccc(NC(=O)CN(C)C(=O)c2cccnc2Nc2cccc(C(F)(F)F)c2)c1", "PEG-3 (UniProt Q6IN02)", "inactive"],
  ["Cc1ccsc1/C=N/Nc1cccc(C(=O)O)c1", "PEG-3 (UniProt Q6IN02)", "active"],
  ["CC(C)Cc1ccc(C(C)C(N)=NCCc2ccccc2)cc1 (configuration not stated)", "PEG-3 (UniProt Q6IN02)", "active"],
  ["O=C(O)c1ccc(N/N=C/c2ccc3nccnc3c2)cc1", "PEG-3 (UniProt Q6IN02)", "active"],
  ["Cc1ccc2nc(N(CCCN(C)C)C(=O)c3ccc4c(c3)CCCC4)sc2c1", "PEG-3 (UniProt Q6IN02)", "active"],
  ["CCn1cc(C(=O)NCCC(C)C)c(=O)c2cc(F)c(N3CCN(C(=O)c4ccco4)CC3)cc21", "PEG-3 (UniProt Q6IN02)", "inactive"],
  ["Cc1cc(C(=O)CN2C(=O)c3ccccc3S2(=O)=O)c(C)n1CC1CCCO1 (configuration not stated)", "PEG-3 (UniProt Q6IN02)", "active"],
  ["C/C(=N\\NC(=O)c1c(C)nc2ccccn12)c1ccc(O)cc1O", "PEG-3 (UniProt Q6IN02)", "active"],
  ["O=Cc1cn(Cc2ccc(F)cc2)c2ccccc12", "PEG-3 (UniProt Q6IN02)", "active"],
  ["N=c1n(CCN2CCCC2)c2ccccc2n1CC(O)c1ccc(Cl)c(Cl)c1 (configuration not stated)", "PEG-3 (UniProt Q6IN02)", "active"],
  ["CCCCCCCCCC[N+](C)(C)CC/C=C1/c2ccccc2Sc2ccc(Cl)cc21", "PEG-3 (UniProt Q6IN02)", "active"]
]}
